system: ATR-driven phosphorylation of Chk1 kinase at Serine 345 in HT-29 colorectal adenocarcinoma cells; assay: pCHK1 cellular assay (CHK1 p-Ser345 AlphaScreen SureFire); type: cell-based; settings: Homo sapiens, HT-29, HT-29 cells, 4-nitroquinoline N-oxide 12 uM; read-out: Cell IC50 (pCHK1 IC50 values)
pIC50: −log10 of the molar value.
reported-metric: pIC50

(A) C[C@@H]1Cc2ncnc(N3CC(S(C)(=O)=O)C3)c2CN1c1cc(Cl)nc2[nH]ccc12 [Example 32]
(B) COC(=O)N1CCCC(c2ncnc3c2CN(c2cc(Cl)nc4[nH]ccc24)[C@H](C)C3)C1 (stereo partly drawn) [Example 10, bis(trifluoroacetate)]
(C) C[C@@H]1Cc2ncnc(C3CCN(S(=O)(=O)C4CC4)CC3)c2CN1c1ccnc2[nH]ccc12 [Example 80]
Exam item: list the entries in increasing order of pIC50. Put the labels in the requested order and list them out. C, B, A

---

molecular target: ATR/ATRIP complex (Homo sapiens (Human)); experiment: ATR/ATRIP enzymatic assay (Caliper-based); format: biochemical; details: FAM-labeled RAD17 peptide, ATP; read-out: ATR/ATRIP Enzyme IC50
reported-metric: IC50 (nM)

// worked examples, IC50 included
compound="C[C@@H]1Cc2ncnc(N3CCC(NS(C)(=O)=O)CC3)c2CN1c1ccnc2[nH]ccc12 [Example 64]" measurement_unit=nM quantitative_result=472
compound="C[C@@H]1Cc2ncnc(C3CCN(S(C)(=O)=O)CC3)c2CN1c1cc(Cl)nc2[nH]ccc12 [Example 7, bis(trifluoroacetate)]" measurement_unit=nM quantitative_result=163

(1) C[C@@H]1Cc2ncnc(N3C[C@H]4CC[C@@H](C3)[C@H]4NS(=O)(=O)C3CC3)c2CN1c1cc(Cl)nc2[nH]ccc12 [Example 78]
(2) CS(=O)(=O)N1CCC(c2ncnc3c2CN(c2ccnc4[nH]ccc24)[C@H](C(F)F)C3)CC1 [Example 53b]
Sort 1 and 2 by IC50 descending and give the first. Mark your selection by writing its label. 2

---

molecular target: ATR/ATRIP complex (Homo sapiens (Human), UniProt Q13535); assay: ATR/ATRIP enzymatic assay (Caliper-based); assay type: biochemical; conditions: FAM-labeled RAD17 peptide, ATP; read-out: ATR/ATRIP Enzyme IC50
Sequence (Q13535 whole entry): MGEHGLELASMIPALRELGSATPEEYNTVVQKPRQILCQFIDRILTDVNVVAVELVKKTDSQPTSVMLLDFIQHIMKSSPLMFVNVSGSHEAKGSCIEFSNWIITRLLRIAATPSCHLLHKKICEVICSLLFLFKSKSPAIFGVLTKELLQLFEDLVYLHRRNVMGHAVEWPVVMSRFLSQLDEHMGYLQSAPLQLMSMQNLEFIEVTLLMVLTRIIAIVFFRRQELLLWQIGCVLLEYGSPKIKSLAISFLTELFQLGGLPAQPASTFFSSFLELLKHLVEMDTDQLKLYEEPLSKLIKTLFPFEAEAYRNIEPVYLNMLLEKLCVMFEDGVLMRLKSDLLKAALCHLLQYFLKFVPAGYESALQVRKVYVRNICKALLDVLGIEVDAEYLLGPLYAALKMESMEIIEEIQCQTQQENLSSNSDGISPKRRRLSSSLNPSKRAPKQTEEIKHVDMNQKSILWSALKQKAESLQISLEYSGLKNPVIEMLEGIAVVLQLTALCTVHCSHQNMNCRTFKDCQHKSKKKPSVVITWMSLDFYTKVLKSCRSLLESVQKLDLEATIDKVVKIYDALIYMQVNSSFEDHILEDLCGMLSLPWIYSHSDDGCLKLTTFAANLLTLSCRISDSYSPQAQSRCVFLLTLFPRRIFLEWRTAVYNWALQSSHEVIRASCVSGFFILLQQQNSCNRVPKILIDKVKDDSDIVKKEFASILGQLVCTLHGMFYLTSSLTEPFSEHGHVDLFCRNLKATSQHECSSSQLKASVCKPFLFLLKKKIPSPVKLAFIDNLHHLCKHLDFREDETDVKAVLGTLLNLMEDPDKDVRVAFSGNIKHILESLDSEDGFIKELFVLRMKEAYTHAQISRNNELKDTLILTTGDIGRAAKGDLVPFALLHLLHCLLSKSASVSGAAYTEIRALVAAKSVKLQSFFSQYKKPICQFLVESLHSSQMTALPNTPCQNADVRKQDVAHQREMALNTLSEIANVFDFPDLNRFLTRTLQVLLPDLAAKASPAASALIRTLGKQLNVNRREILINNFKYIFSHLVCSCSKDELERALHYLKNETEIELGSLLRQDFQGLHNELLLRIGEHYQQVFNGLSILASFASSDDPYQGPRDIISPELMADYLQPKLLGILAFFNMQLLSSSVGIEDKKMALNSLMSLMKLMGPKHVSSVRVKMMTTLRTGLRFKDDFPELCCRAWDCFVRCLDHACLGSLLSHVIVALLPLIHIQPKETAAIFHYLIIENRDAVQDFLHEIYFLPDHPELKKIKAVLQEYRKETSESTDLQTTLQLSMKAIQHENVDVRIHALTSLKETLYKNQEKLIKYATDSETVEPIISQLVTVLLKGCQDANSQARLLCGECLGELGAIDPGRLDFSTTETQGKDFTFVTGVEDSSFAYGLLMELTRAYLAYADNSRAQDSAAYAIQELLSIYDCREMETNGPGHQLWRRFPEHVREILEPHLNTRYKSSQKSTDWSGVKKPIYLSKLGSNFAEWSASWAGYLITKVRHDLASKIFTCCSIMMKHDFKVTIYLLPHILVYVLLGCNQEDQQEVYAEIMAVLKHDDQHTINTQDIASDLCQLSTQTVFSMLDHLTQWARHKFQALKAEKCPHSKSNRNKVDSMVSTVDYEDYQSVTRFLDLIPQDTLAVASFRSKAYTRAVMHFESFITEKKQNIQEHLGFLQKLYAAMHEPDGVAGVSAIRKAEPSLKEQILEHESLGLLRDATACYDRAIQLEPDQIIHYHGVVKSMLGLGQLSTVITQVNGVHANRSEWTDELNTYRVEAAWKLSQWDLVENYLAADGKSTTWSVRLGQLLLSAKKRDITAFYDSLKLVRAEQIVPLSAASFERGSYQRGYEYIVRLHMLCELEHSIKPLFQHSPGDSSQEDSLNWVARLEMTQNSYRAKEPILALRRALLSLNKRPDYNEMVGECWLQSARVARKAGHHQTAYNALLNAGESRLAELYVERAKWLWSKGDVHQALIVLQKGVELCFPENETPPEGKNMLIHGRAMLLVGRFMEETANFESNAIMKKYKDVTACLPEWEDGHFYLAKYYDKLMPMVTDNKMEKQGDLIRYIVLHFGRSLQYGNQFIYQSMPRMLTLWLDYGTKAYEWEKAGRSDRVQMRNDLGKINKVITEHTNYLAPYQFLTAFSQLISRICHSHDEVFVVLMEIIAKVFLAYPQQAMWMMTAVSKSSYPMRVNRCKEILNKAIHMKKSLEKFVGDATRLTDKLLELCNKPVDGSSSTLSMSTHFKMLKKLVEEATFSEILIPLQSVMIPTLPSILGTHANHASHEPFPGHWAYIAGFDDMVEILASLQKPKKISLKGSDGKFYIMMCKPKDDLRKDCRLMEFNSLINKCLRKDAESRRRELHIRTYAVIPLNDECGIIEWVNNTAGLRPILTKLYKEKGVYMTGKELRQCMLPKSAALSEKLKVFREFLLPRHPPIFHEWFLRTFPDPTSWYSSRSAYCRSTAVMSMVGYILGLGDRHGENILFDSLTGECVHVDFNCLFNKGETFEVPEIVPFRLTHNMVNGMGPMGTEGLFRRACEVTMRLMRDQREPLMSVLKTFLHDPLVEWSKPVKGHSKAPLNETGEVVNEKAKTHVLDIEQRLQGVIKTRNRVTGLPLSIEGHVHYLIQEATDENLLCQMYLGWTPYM
Sequence (Q8WXE1 whole entry partner): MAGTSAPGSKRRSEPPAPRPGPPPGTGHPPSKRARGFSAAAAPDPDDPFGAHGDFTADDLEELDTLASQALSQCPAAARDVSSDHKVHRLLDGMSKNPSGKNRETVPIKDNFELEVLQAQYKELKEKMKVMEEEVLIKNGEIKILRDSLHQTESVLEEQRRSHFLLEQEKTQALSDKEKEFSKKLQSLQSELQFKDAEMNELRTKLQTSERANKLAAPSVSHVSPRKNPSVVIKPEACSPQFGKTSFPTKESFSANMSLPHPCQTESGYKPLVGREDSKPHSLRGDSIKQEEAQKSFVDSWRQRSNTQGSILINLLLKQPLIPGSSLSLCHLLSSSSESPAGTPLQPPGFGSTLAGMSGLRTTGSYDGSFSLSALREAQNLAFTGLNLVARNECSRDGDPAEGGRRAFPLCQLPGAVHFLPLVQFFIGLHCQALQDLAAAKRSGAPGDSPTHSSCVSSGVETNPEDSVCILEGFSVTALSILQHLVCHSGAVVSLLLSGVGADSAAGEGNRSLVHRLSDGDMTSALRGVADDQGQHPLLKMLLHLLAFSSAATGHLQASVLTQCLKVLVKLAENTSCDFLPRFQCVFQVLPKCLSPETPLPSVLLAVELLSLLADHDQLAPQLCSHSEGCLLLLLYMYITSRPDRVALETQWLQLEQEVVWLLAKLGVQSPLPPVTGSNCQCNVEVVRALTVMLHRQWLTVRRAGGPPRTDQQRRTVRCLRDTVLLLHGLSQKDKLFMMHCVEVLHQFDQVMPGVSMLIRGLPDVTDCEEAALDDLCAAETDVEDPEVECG
reported-metric: IC50 (nM)

// worked examples, IC50 included
compound="C[C@@H]1Cc2ncnc(N3CCCC(S(C)(=O)=O)C3)c2CN1c1ccnc2[nH]ccc12 (stereo partly shown)" measurement_unit=nM quantitative_result=420
compound="C[C@@H]1Cc2ncnc(C3CCN(S(C)(=O)=O)C3)c2CN1c1ccnc2[nH]ccc12 (stereo partly shown)" measurement_unit=nM quantitative_result=936
compound=C[C@@H]1Cc2ncnc(N3CCC[C@@H](NS(C)(=O)=O)C3)c2CN1c1cc(Cl)nc2[nH]ccc12 measurement_unit=nM quantitative_result=715
compound=C[C@@H]1Cc2ncnc(N3CCC(NS(C)(=O)=O)CC3)c2CN1c1cc(Cl)nc2[nH]ccc12 measurement_unit=nM quantitative_result=120
compound=C[C@@H]1Cc2ncnc(N3CC[C@@H](S(C)(=O)=O)C3)c2CN1c1cc(Cl)nc2[nH]ccc12 measurement_unit=nM quantitative_result=237

(a) CCOc1cc(N2Cc3c(ncnc3C3CCN(S(C)(=O)=O)CC3)C[C@H]2C)c2cc[nH]c2n1
(b) C[C@@H]1Cc2ncnc([C@@H]3CCN(S(C)(=O)=O)C(C)(C)C3)c2CN1c1ccnc2[nH]ccc12 (single isomer, unassigned) [Example 48a]
(c) C[C@@H]1Cc2ncnc(N3CCC(C#N)CC3)c2CN1c1ccnc2[nH]ccc12
(d) CCOc1cc(N2Cc3c(ncnc3C3CCN(S(C)(=O)=O)CC3)C[C@H]2CF)c2cc[nH]c2n1 [Example 55b]
(e) C[C@@H]1Cc2ncnc(C3CCN(S(C)(=O)=O)CC3)c2CN1c1ccnc2[nH]ccc12 [Example 6, bis(trifluoroacetate)]
Kindly order the items shown according to IC50, from the highest value down. Put the labels in the requested order and list them out. b, c, e, d, a
(b: 3330 nM, c: 796 nM, e: 499 nM, d: 311 nM, a: 123 nM)

(I) C[C@@H]1Cc2ncnc(N3CC[C@H](S(C)(=O)=O)C3)c2CN1c1cc(Cl)nc2[nH]ccc12
(II) COC(=O)[C@H]1CCCN(c2ncnc3c2CN(c2cc(Cl)nc4[nH]ccc24)[C@H](C)C3)C1
Sort I and II by IC50 descending and give the first. Mark your selection by writing its label. I

(I) C[C@@H]1Cc2ncnc(C3CCN(S(C)(=O)=O)CC3)c2CN1c1cc(C#N)nc2[nH]ccc12
(II) C[C@@H]1Cc2ncnc(C3CCC(NS(C)(=O)=O)CC3)c2CN1c1cc(Cl)nc2[nH]ccc12 (stereo partly shown)
Sort I and II by IC50 descending and give the first. Mark your selection by writing its label. II
(II: 899 nM, I: 336 nM)

---

target: ATR/ATRIP complex (Homo sapiens (Human), UniProt Q13535); experiment: ATR/ATRIP enzymatic assay (Caliper-based); type: biochemical; conditions: FAM-labeled RAD17 peptide, ATP; read-out: ATR/ATRIP Enzyme IC50
pIC50: −log10 of the molar value.
reported-metric: pIC50

// worked examples, pIC50 included
molecule="C[C@@H]1Cc2ncnc(N3CCC(S(C)(=O)=O)CC3)c2CN1c1cc(Cl)nc2[nH]ccc12 [Example 9, bis(trifluoroacetate)]" assayed_target="ATR/ATRIP complex (Homo sapiens (Human), UniProt Q13535)" reported_metric=pIC50 quantitative_result=6.35
molecule="CS(=O)(=O)N1CCC(c2ncnc3c2CN(c2ccnc4[nH]ccc24)[C@H](CF)C3)CC1 [Example 52b]" assayed_target="ATR/ATRIP complex (Homo sapiens (Human), UniProt Q13535)" reported_metric=pIC50 quantitative_result=6.06

(a) C[C@@H]1Cc2ncnc(N3C[C@H]4CC[C@@H](C3)[C@@H]4NS(C)(=O)=O)c2CN1c1cc(Cl)nc2[nH]ccc12
(b) CC1Cc2ncnc(-c3ccc(S(C)(=O)=O)cc3)c2CN1c1ccnc2[nH]ccc12 (centres unmarked) [Example 3, bis(trifluoroacetate)]
(c) Cc1cc2c(N3Cc4c(ncnc4C4CCN(S(C)(=O)=O)CC4)C[C@H]3C)ccnc2[nH]1
Could you please order the items by pIC50, going from the lowest number to the highest? Put the labels in the requested order and list them out. b, a, c

---

molecular target: ATR/ATRIP complex (Homo sapiens (Human)); assay: ATR/ATRIP enzymatic assay (Caliper-based); assay type: biochemical; conditions: FAM-labeled RAD17 peptide, ATP; read-out: ATR/ATRIP Enzyme IC50
reported-metric: IC50 (nM)

compound="C[C@@H]1Cc2ncnc(N3CC4CCC(C3)C4NS(C)(=O)=O)c2CN1c1ccnc2[nH]ccc12 (some centres unmarked)" reported_metric=IC50 quantitative_result=283
compound=C[C@@H]1Cc2ncnc(N3CC(O)C3)c2CN1c1cc(Cl)nc2[nH]ccc12 reported_metric=IC50 quantitative_result=320
compound="C[C@@H]1Cc2ncnc(N3CCCC(C(C)(C)O)C3)c2CN1c1cc(Cl)nc2[nH]ccc12 (stereo in doubt)" reported_metric=IC50 quantitative_result=378

(I) C[C@@H]1Cc2ncnc(C3CCN(S(C)(=O)=O)CC3)c2CN1c1cc(C2CC2)nc2[nH]ccc12
(II) C[C@@H]1Cc2ncnc(N3CCC(S(C)(=O)=O)C3)c2CN1c1cc(Cl)nc2[nH]ccc12 (some centres unmarked)
Hey, between I and II which has a smaller measured IC50? Mark your selection by writing its label. I
